- testSystem: ACAT (enzyme solution derived from the small intestine of a rabbit)
- Construct: An enzyme solution derived from the small intestine was prepared from the small intestine of a rabbit that had eaten a normal food
- assayProcedure: ACAT inhibitory activity, enzyme solution from rabbit small intestine
- measurementContext: B‡: the small intestine
observedProperty: pIC50
Lab note: report pIC50 as minus log10 of the concentration in molar units, number only.

# compound, recordedNumber
records = [
    ("CC(C)c1cccc(C(C)C)c1NC(=O)C(C)(C)CCCOc1ccc2c(c1)C=C(c1nccn1C)C(CCc1ccc(F)cc1)O2 (stereo not shown) [Control 1, reference compound]", 6.06),
    ("CC(C)c1cccc(C(C)C)c1NC(=O)CCCCCSc1nc2ccccc2o1 [Control 5, reference compound]", 7.19),
    ("CCCCCCCN(CCCCCSc1nc(-c2ccccc2)c(-c2ccccc2)[nH]1)c1nc2ccccc2o1 [Control 4, reference compound]", 7.43),
]

Please turn your attention to the following entry.
Checklist item: pIC50 tested on ACAT (enzyme solution derived from the small intestine of a rabbit), entry CCCCCCCCCN(CC(C)(C)C)C(=O)N[C@H]1CCCC[C@@H]1OC(=O)CCNC(=O)C1OC(C)(C)OCC1(C)C (stereo partly shown) [Control 3] , value?
7.25

====

observedProperty: melting point

Field: example entries. Status: answers known.
# lineNotation, melting point
data = [
    ("CSc1nccc(C)c1NC(=O)CCCCCCCCSc1nc2ccccc2o1", "91 to 92 °C"),
    ("Cc1cc(SC(C)C)c(NC(=O)CCCCCCSc2nc3cccc(C(F)(F)F)c3o2)c(SC(C)C)n1", "76 to 78 °C"),
    ("CSc1cc(C)nc(SC)c1NC(=O)CCCSc1nc2ccccc2o1", "149 to 150 °C"),
    ("CSc1nc(C)ccc1NC(=O)CCCCCSc1nc2ccccc2[nH]1", "138 to 140 °C"),
    ("CSc1cc(C)nc(SC)c1NC(=O)CCCCSc1nc2ccccc2s1", "121 to 123 °C"),
    ("COC(=O)c1cccc2nc(SCCCCCCCCC(=O)Nc3c(SC)cc(C)nc3SC)oc12", "126 to 128 °C"),
    ("Cc1cc(SC(C)C)c(NC(=O)CCCCCSc2nc3cccc(C(F)(F)F)c3o2)c(SC(C)C)n1", "102 to 103 °C"),
]

Please turn your attention to the following entry.
Item `CSc1cc(C)nc(SC)c1NC(=O)CCCCCCCSc1nc2cccc(C(F)(F)F)c2o1` has what recorded melting point?
115 to 116 °C

====

The reader will find reported melting point values listed item by item below.

Field: example entries. Status: answers known.
# molecule, melting point
rows = [
    ("CCSc1cc(C)nc(SCC)c1NC(=O)CCCCSc1nc2ccccc2[nH]1 [Compound No. 834]", "163 to 165 °C"),
    ("CSc1cc(C)nc(SC)c1NC(=O)CSc1nc2ccccc2s1 [Compound No. 791]", "178 to 179 °C"),
    ("CCSc1cc(C)nc(SCC)c1NC(=O)CSc1nc2ccccc2s1 [compound 821]", "119 to 120 °C"),
    ("CSc1cc(C)nc(SC)c1NC(=O)CCCCCCCCSc1nc2ccccc2s1 [compound 798]", "126 to 127 °C"),
]

Item CSc1nc(C)ccc1NC(=O)CCCCCSc1nc2ccccc2s1 [compound 465] has what recorded melting point?
122 to 123 °C

Item CCSc1cc(C)nc(SCC)c1NC(=O)CCCCCCCCSc1nc2cccc(C(F)(F)F)c2o1 [Compound No. 1274] has what recorded melting point?
115 to 116 °C

Item CSc1nc(C)ccc1NC(=O)CSc1nc2ccccc2s1 [Compound No. 461] has what recorded melting point?
175 to 176 °C

Item CCSc1cc(C)nc(SCC)c1NC(=O)CSc1nc2ccccc2o1 [compound 811] has what recorded melting point?
143 to 145 °C

Item CCSc1cc(C)nc(SCC)c1NC(=O)CCCSc1nc2cccc(C(F)(F)F)c2o1 [Compound No. 1269] has what recorded melting point?
148 to 150 °C

====

- Test system: J774 cells
- assayProcedure: ACAT inhibitory activity (anti-foamation activity) in J774 cells
- Format: cell-based
- measurementContext: Mus musculus; J774 cells, 25-OH cholesterol 10 μg/ml, 18 hours; read-out: Enzyme (J774) IC50
The reader will find reported IC50 values listed item by item below.
Express the result in nM but write the number alone.

Field: example entries. Status: answers known.
# compound, recordedNumber
rows = [
    ("CCCCCCCN(CCCCCSc1nc(-c2ccccc2)c(-c2ccccc2)[nH]1)c1nc2ccccc2o1 [Control 4, reference compound]", 120),
    ("CC(C)c1cccc(C(C)C)c1NC(=O)C(C)(C)CCCOc1ccc2c(c1)C=C(c1nccn1C)C(CCc1ccc(F)cc1)O2 (stereo not drawn) [Control 1, reference compound]", 560),
]

Item `Cc1cc(SC(C)C)c(NC(=O)CCCCCCCCSc2nc3cccc(C(F)(F)F)c3o2)c(SC(C)C)n1` has what recorded IC50?
4.2

====

The reader will find reported melting point values listed item by item below.

Field: example entries. Status: answers known.
# lineNotation, melting point
measured = [
    ("Cc1cc(SC(C)C)c(NC(=O)CCCCCCSc2nc3c(C)c(Cl)cc(C(C)C)c3o2)c(SC(C)C)n1", "91 to 93 °C"),
    ("CCSc1cc(C)nc(SCC)c1NC(=O)CSc1nc2ccccc2[nH]1", "182 to 183 °C"),
    ("CCSc1cc(C)nc(SCC)c1NC(=O)CCCCCCCSc1nc2ccccc2s1", "94 to 96 °C"),
]

Please turn your attention to the following entry.
Item `CSc1cc(C)nc(SC)c1NC(=O)CCCSc1nc2ccccc2[nH]1` has what recorded melting point?
177 to 179 °C

====

- testSystem: ACAT (microsome from the breast aorta of a rabbit) (Oryctolagus cuniculus, UniProt G1SUQ0)
- Sequence (G1SUQ0 entry or part of it): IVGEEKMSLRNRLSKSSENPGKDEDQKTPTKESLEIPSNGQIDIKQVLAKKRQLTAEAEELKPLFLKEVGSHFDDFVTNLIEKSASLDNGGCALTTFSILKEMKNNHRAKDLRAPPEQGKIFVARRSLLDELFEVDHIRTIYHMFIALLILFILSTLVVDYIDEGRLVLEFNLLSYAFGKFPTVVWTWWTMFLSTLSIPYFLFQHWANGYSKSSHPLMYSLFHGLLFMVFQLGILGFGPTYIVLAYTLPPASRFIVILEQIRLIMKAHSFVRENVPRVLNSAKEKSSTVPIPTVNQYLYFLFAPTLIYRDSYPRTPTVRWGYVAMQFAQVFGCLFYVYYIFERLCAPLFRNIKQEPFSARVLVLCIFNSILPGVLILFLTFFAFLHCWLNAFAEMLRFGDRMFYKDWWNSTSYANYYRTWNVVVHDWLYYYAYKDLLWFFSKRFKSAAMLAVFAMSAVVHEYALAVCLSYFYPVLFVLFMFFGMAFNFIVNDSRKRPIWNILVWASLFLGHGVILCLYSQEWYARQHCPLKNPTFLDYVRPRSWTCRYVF
- assayProcedure: ACAT inhibitory activity, microsome from rabbit breast aorta (blood vessel wall enzyme)
- measurementContext: microsome from breast aorta of cholesterol-fed rabbit
observedProperty: pIC50
Lab note: report pIC50 as minus log10 of the concentration in molar units, number only.

Item CCCCCCCCCN(CC(C)(C)C)C(=O)N[C@H]1CCCC[C@@H]1OC(=O)CCNC(=O)C1OC(C)(C)OCC1(C)C (stereo partly shown) [Control 3] has what recorded pIC50?
7.47

====

observedProperty: melting point

Field: example entries. Status: answers known.
# lineNotation, melting point
data = [
    ("CSc1cc(C)nc(SC)c1NC(=O)CCCCSc1nc2ccccc2[nH]1", "176 to 177 °C"),
    ("Cc1cc(SC(C)C)c(NC(=O)CCCCCCSc2nc3ccccc3[nH]2)c(SC(C)C)n1", "118 to 121 °C"),
    ("CCSc1cc(C)nc(SCC)c1NC(=O)CSc1nc2cccc(C(=O)OC)c2o1", "168 to 169 °C"),
    ("CSc1cc(C)nc(SC)c1NC(=O)CCCCCSc1nc2ccccc2s1", "123 to 125 °C"),
]

Item `Cc1cc(SC(C)C)c(NC(=O)CCCCCCCCSc2nc3cccc(C(F)(F)F)c3o2)c(SC(C)C)n1` has what recorded melting point?
97 to 98 °C

Item `CSc1cc(C)nc(SC)c1NC(=O)CSc1nc2ccccc2o1` has what recorded melting point?
203 to 205 °C

Item `Cc1cc(SC(C)C)c(NC(=O)CCCCSc2nc3c(C)c(Cl)cc(C(C)C)c3o2)c(SC(C)C)n1` has what recorded melting point?
143 to 145 °C

====

- Test system: J774 cells
- assayProcedure: ACAT inhibitory activity (anti-foamation activity) in J774 cells
- Format: cell-based
- measurementContext: Mus musculus; J774 cells, 25-OH cholesterol 10 μg/ml, 18 hours; read-out: Enzyme (J774) IC50
- Method: J774 cells or HepG2 cells were spread on a 24-well plate. […] The medium was removed, and the residue was washed twice with PBS, then extracted with 1.5 ml of a hexane:isopropanol (3:2) mixture, and concentrated to dryness. […] Total cholesterol (TC) and free cholesterol (FC) were measured using Cholesterol E Test Wako (supplied by Wako Pure Chemical Industries, Ltd.) and Free Cholesterol E Test Wako (supplied by Wako Pure Chemical Industries, Ltd.). […]
The reader will find reported IC50 values listed item by item below.
Quick note: unit goes after the number.

Field: example entries. Status: answers known.
# compound, testSystem, IC50
data = [
    ("CC(C)c1cccc(C(C)C)c1NC(=O)CCCCCSc1nc2ccccc2o1 [Control 5, reference compound]", "J774 cells", "1900 nM"),
    ("Cc1cc(SC(C)C)c(NC(=O)CCCCCCSc2nc3cccc(C(F)(F)F)c3o2)c(SC(C)C)n1 [Compound No. 1292]", "J774 cells", "2.7 nM"),
]

Please turn your attention to the following entry.
Item CCCCCCCCCN(CC(C)(C)C)C(=O)N[C@H]1CCCC[C@@H]1OC(=O)CCNC(=O)C1OC(C)(C)OCC1(C)C (stereo partly drawn) [Control 3] has what recorded IC50?
320 nM
